test system: Vero E6; experiment: cell viability relative to DMSO; higher = less toxic; settings: 72 h; 100 nM
Would you kindly list cell viability for each of these compounds?
Hi! Could you send only the number? It should be in %, unit omitted.

Asked: What does the record list as cell viability for CC(C)(C)c1ccc(CN(Cc2cccc(OCC(=O)O)c2)S(=O)(=O)c2cccnc2)cc1 [evatanepag] ?
Given back: 102

Asked: What does the record list as cell viability for CC#C[C@]1(O)CC[C@H]2[C@@H]3CCC4=CC(=O)CCC4=C3[C@@H](c3ccc(N(C)C)cc3)C[C@@]21C [mifepristone] ?
Given back: 98.4

Asked: What does the record list as cell viability for Cn1cc(-c2cnc3ccc4ccc(CS(=O)(=O)NCc5ccccn5)cc4c(=O)c3c2)cn1 [MK-8033] ?
Given back: 104

Asked: What does the record list as cell viability for CCCN(CCC)C(=O)C(CCC(=O)OCCCN1CCN(CCOC(=O)Cc2c(C)n(C(=O)c3ccc(Cl)cc3)c3ccc(OC)cc23)CC1)NC(=O)c1ccccc1 (stereo not drawn) [proglumetacin] ?
Given back: 98

Asked: What does the record list as cell viability for CCOCCOc1ccccc1C(N)=O [etosalamide] ?
Given back: 93.3

Asked: What does the record list as cell viability for O=C(O)CCCC[C@@H]1CCSS1 [thioctic-acid] ?
Given back: 104

Asked: What does the record list as cell viability for Nc1ccc(F)cc1NC(=O)c1ccc(CNC(=O)/C=C/c2cccnc2)cc1 [chidamide] ?
Given back: 95.4

Asked: What does the record list as cell viability for FC(F)(F)c1ccc(/C=C/c2nc(COc3ccc(CCCCn4ccnn4)cc3)co2)cc1 [mubritinib] ?
Given back: 100
